Please provide measured drug sensitivity score for the entries that follow.
System: normal primary NK cells, pool 1 (3 donors), resting (IL-2 0 ng/mL)
test name: drug sensitivity score (DSS) (DSS units); higher = more sensitive; extreme values may be limits of the assay
experimental context: 72 h
Answers are plain numbers.

Solved entries (count: 3):
compound | assayed system | drug sensitivity score
Cc1nc(Nc2ncc(C(=O)Nc3c(C)cccc3Cl)s2)cc(N2CCN(CCO)CC2)n1 [Dasatinib] (max concentration tested 1000 nM) | normal primary NK cells, pool 1 (3 donors), resting (IL-2 0 ng/mL) | 0
CNNCc1ccc(C(=O)NC(C)C)cc1 [Procarbazine] (max concentration tested 10000 nM) | normal primary NK cells, pool 1 (3 donors), resting (IL-2 0 ng/mL) | 0
O=C(O)CNC(=O)c1c(O)c2ccccc2n(Cc2ccccc2)c1=O [IOX-2] (max concentration tested 50000 nM) | normal primary NK cells, pool 1 (3 donors), resting (IL-2 0 ng/mL) | 0

I'm hoping you can list drug sensitivity score for every compound here, please.
1. C/C(=C\c1csc(C)n1)[C@@H]1C[C@@H]2O[C@]2(C)CCC[C@H](C)[C@H](O)[C@@H](C)C(=O)C(C)(C)[C@@H](O)CC(=O)O1 [Patupilone] (max concentration tested 1000 nM)
2. CS(=O)(=O)c1ccc(C2=C(c3ccccc3)C(=O)OC2)cc1 [Rofecoxib] (max concentration tested 10000 nM)
3. CCn1nnc2c(N3CCOCC3)nc(-c3ccc(NC(=O)Nc4ccc(C(=O)N5CCN(C)CC5)cc4)cc3)nc21 [PKI-402] (max concentration tested 2500 nM)

A)
1: 0.55; 2: 0; 3: 7.08

----------
Tested on: SNK-6 (IL-2 2.5 ng/mL)
test name: drug sensitivity score (DSS) (DSS units); higher = more sensitive; extreme values may be limits of the assay
experimental context: 72 h
Tick true if drug sensitivity score is 8 or greater. Tick false if drug sensitivity score is less than 8.

compound | assayed system | category label
CCc1cc(Nc2nccc(-c3c(-c4ccc(OC)c(C(=O)Nc5c(F)cccc5F)c4)nc4ccccn34)n2)c(OC)cc1N1CCC(N2CCN(S(C)(=O)=O)CC2)CC1 (max concentration tested 10000 nM) | SNK-6 (IL-2 2.5 ng/mL) | false
c1ccc([C@H]2CN3CCSC3=N2)cc1 [Levamisole] (max concentration tested 10000 nM) | SNK-6 (IL-2 2.5 ng/mL) | false

Q) Decide: drug sensitivity score of CO[C@@H]1[C@H](N(C)C(=O)c2ccccc2)C[C@H]2O[C@]1(C)n1c3ccccc3c3c4c(c5c6ccccc6n2c5c31)C(=O)NC4 [Midostaurin] (max concentration tested 10000 nM) >= 8?
A) true

Q) Decide: drug sensitivity score of Cc1nc(Nc2n[nH]c3c2CN(C(=O)N[C@H](CN(C)C)c2ccccc2)C3(C)C)c2sccc2n1 (max concentration tested 10000 nM) >= 8?
A) true

Q) Decide: drug sensitivity score of CCN(c1cc(-c2ccc(CN3CCOCC3)cc2)cc(C(=O)NCc2c(C)cc(C)[nH]c2=O)c1C)C1CCOCC1 [E7438] (max concentration tested 10000 nM) >= 8?
A) false

Q) Decide: drug sensitivity score of CCNC(=O)Nc1ccc(-c2nc3c(c(N4CCOC[C@@H]4C)n2)CCN(C2COC2)C3)cc1 [RG-7603] (max concentration tested 2500 nM) >= 8?
A) false

Q) Decide: drug sensitivity score of C1=N/C2=N/c3ccc(OCCN4CCCC4)c(c3)COC/C=C/COCc3cccc(c3)C(=C1)N2 [Pacritinib] (max concentration tested 10000 nM) >= 8?
A) true

----------
Please provide measured percent inhibition of viability for the entries that follow.
Tested on: normal NK cells expanded with K562-aAPC
test name: percent inhibition of viability; higher = more inhibition
experimental context: 72 h; IL-2 2.5 ng/mL; 25 nM
Answers are plain numbers, in %.

Solved entries (count: 3):
compound | assayed system | output unit | percent inhibition of viability
NC(=O)Nc1sc(-c2ccc(F)cc2)cc1C(N)=O [TPCA-1] (max concentration tested 25000 nM) | normal NK cells expanded with K562-aAPC | % | -4.88
O=C(c1cccc(Cl)c1F)N1CCN(Cc2cccc(Nc3nccs3)n2)CC1 [MK-8745] (max concentration tested 2500 nM) | normal NK cells expanded with K562-aAPC | % | -9.82
Nc1nc(NC2CC2)cc(-c2cccc(Cl)c2Cl)n1 [TH588] (max concentration tested 25000 nM) | normal NK cells expanded with K562-aAPC | % | -5.78

Could you now look at the following compound, please?
Q) Checklist item: percent inhibition of viability tested on normal NK cells expanded with K562-aAPC, entry CCCCCCCCCCCCCCCCCCOP(=O)([O-])OC1CC[N+](C)(C)CC1 [Perifosine] (max concentration tested 2500 nM) , value?
A) -6.08

----------
Test system: NK-92 (IL-2 2.5 ng/mL)
test name: percent inhibition of viability; higher = more inhibition
experimental context: 72 h; 10000 nM
result type: percent inhibition of viability (%)
Numbers only, in %.

Solved entries (count: 2):
compound | percent inhibition of viability [%]
COc1ccccc1S(=O)(=O)Nc1ccc2c(c1)CN(C)C(=O)N2 [PFI-1] (max concentration tested 10000 nM) | 14.6
CCc1cc(Nc2nccc(-c3c(-c4ccc(OC)c(C(=O)Nc5c(F)cccc5F)c4)nc4ccccn34)n2)c(OC)cc1N1CCC(N2CCN(S(C)(=O)=O)CC2)CC1 (max concentration tested 10000 nM) | 19.7

Q) Could you tell me which percent inhibition of viability is on file for O=C1CCC(N2C(=O)c3ccccc3C2=O)C(=O)N1 (stereo not drawn) [Thalidomide] (max concentration tested 10000 nM) ?
A) 12.7

----------
System: NKL (IL-2 2.5 ng/mL)
test name: percent inhibition of viability; higher = more inhibition
experimental context: 72 h; 2.5 nM
Please provide measured percent inhibition of viability for the entries that follow.

compound | percent inhibition of viability
CN1CCN(C2CCN(C(=O)Nc3cc(Oc4ccc(NC(=O)C5(C(=O)Nc6ccc(F)cc6)CC5)c(F)c4)ccn3)CC2)CC1 [Golvatinib] (max concentration tested 2500 nM) | -3.62%

I'm hoping you can list percent inhibition of viability for every compound here, please.
1. CCn1nnc2c(N3CCOCC3)nc(-c3ccc(NC(=O)Nc4ccc(C(=O)N5CCN(C)CC5)cc4)cc3)nc21 [PKI-402] (max concentration tested 2500 nM)
2. OCCn1cc(-c2cnc3nnn(Cc4ccc5ncccc5c4)c3n2)cn1 (max concentration tested 2500 nM)
3. CCCNC(=O)Nc1ccc(Oc2ncnc3cc(OC)c(OC)cc23)cc1Cl [KRN-633] (max concentration tested 2500 nM)

A)
1: -11.2%; 2: 5.36%; 3: 1.84%

----------
Tested on: normal primary NK cells, pool 3 (3 donors) (IL-2 2.5 ng/mL)
test name: percent inhibition of viability; higher = more inhibition
experimental context: 72 h; 10 nM
result type: percent inhibition of viability (%)
Give bare numbers, in %.

Solved entries (count: 5):
molecule | result type | measured number
CC(C)C(=O)Nc1ccc([N+](=O)[O-])c(C(F)(F)F)c1 [Flutamide] (max concentration tested 10000 nM) | percent inhibition of viability | 0.66
C1=N/C2=N/c3ccc(OCCN4CCCC4)c(c3)COC/C=C/COCc3cccc(c3)C(=C1)N2 [Pacritinib] (max concentration tested 10000 nM) | percent inhibition of viability | -10.8
CN1CCc2c(c3ccccc3n2Cc2ccc(C(=O)NO)cc2)C1 [Tubastatin A] (max concentration tested 10000 nM) | percent inhibition of viability | 11.4
Cc1c(C(=O)Nc2ccc(N3C[C@@H](C)O[C@@H](C)C3)nc2)cccc1-c1ccc(OC(F)(F)F)cc1 [Sonidegib] (max concentration tested 10000 nM) | percent inhibition of viability | -5.96
S=C(NCc1ccc2c(c1)OCO2)N1CCN(c2ncnc3c2oc2ccccc23)CC1 [Amuvatinib] (max concentration tested 10000 nM) | percent inhibition of viability | 8.45

Could you now look at the following molecule, please?
Q) Checklist item: percent inhibition of viability tested on normal primary NK cells, pool 3 (3 donors) (IL-2 2.5 ng/mL), entry CC(C)(C#N)c1cc(Cn2cncn2)cc(C(C)(C)C#N)c1 [Anastrozole] (max concentration tested 10000 nM) , value?
A) -0.62

----------
Tested on: YT (IL-2 2.5 ng/mL)
test name: drug sensitivity score (DSS) (DSS units); higher = more sensitive; extreme values may be limits of the assay
experimental context: 72 h
result type: drug sensitivity score
One number for each entry.

Solved entries (count: 5):
compound | assayed system | drug sensitivity score
CN(C)C[C@@H]1CCn2cc(c3ccccc32)C2=C(C(=O)NC2=O)c2cn(c3ccccc23)CCO1 [Ruboxistaurin] (max concentration tested 10000 nM) | YT (IL-2 2.5 ng/mL) | 6.1
CC(C)N(CCCNC(=O)Nc1ccc(C(C)(C)C)cc1)C[C@H]1O[C@@H](n2cc(Br)c3c(N)ncnc32)[C@H](O)[C@@H]1O [SGC0946] (max concentration tested 10000 nM) | YT (IL-2 2.5 ng/mL) | 1.23
O=c1ncn2nc(Sc3ccc(F)cc3F)ccc2c1-c1c(Cl)cccc1Cl [VX 745] (max concentration tested 10000 nM) | YT (IL-2 2.5 ng/mL) | 2.49
NC(=O)Nc1sc(-c2ccc(F)cc2)cc1C(N)=O [TPCA-1] (max concentration tested 25000 nM) | YT (IL-2 2.5 ng/mL) | 16.3
S=C(NCc1ccc2c(c1)OCO2)N1CCN(c2ncnc3c2oc2ccccc23)CC1 [Amuvatinib] (max concentration tested 10000 nM) | YT (IL-2 2.5 ng/mL) | 4.88

Q) Could you tell me which drug sensitivity score is on file for CCNC(=O)CCC/C=C\C[C@@H]1[C@@H](/C=C/[C@@H](O)CCc2ccccc2)[C@H](O)C[C@@H]1O [Bimatoprost] (max concentration tested 5500 nM) ?
A) 0.89
